Numbers sourced from patent US8703720B2.

Quick record of Kd values for UniProt:P09382.
Sequence (P09382 whole entry, species assumed): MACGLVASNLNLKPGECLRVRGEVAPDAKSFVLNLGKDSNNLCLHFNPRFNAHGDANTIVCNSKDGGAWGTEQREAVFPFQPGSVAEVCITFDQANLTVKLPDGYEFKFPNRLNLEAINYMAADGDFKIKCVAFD

[
  {
    "molecule": "OC[C@H]1O[C@@H](S[C@@H]2CCC[C@H](n3cc(-c4ccsc4)nn3)[C@H]2O)[C@H](O)[C@@H](n2cc(-c3ccsc3)nn2)[C@H]1O",
    "Kd (µM)": 0.35
  },
  {
    "molecule": "CCCNC(=O)c1cn(C2CCC[C@@H](S[C@@H]3OC(CO)[C@H](O)[C@H](n4cc(C(=O)NCCC)nn4)C3O)C2O)nn1 (some centres unmarked)",
    "Kd (µM)": 1.3
  },
  {
    "molecule": "OC[C@H]1O[C@@H](S[C@@H]2CCC[C@H](n3cc(-c4cccc(F)c4)nn3)[C@H]2O)[C@H](O)[C@@H](n2cc(-c3cccc(F)c3)nn2)[C@H]1O",
    "Kd (µM)": 1.5
  },
  {
    "molecule": "OC[C@H]1O[C@@H](S[C@@H]2CCC[C@H](n3cc(-c4ccccc4F)nn3)[C@H]2O)[C@H](O)[C@@H](n2cc(-c3ccccc3F)nn2)[C@H]1O",
    "Kd (µM)": 1.9
  },
  {
    "molecule": "OC[C@H]1O[C@@H](S[C@@H]2CCC[C@H](n3cc(-c4ccc(F)cc4)nn3)[C@H]2O)[C@H](O)[C@@H](n2cc(-c3ccc(F)cc3)nn2)[C@H]1O",
    "Kd (µM)": 1.2
  }
]

---

molecular target: galectin-3 (Homo sapiens (Human))
Sequence (P17931 whole entry): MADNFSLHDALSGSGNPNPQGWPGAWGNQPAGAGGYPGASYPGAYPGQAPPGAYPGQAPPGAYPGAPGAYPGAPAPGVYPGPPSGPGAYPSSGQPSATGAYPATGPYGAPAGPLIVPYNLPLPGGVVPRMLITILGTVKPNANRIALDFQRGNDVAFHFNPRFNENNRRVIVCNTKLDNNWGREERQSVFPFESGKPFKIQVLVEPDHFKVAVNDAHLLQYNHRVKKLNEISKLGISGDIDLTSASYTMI
pKd: −log10 of the molar value.
Listed here are compounds together with their documented pKd.
measurement-type: pKd

[
  {
    "sample-smiles": "OC[C@H]1O[C@@H](S[C@@H]2CCC[C@H](n3cc(-c4ccsc4)nn3)[C@H]2O)[C@H](O)[C@@H](n2cc(-c3ccsc3)nn2)[C@H]1O",
    "measurement-type": "pKd",
    "value": 6.26
  },
  {
    "sample-smiles": "OC[C@H]1O[C@@H](S[C@@H]2CCC[C@H](n3cc(-c4ccc(F)cc4)nn3)[C@H]2O)[C@H](O)[C@@H](n2cc(-c3ccc(F)cc3)nn2)[C@H]1O",
    "measurement-type": "pKd",
    "value": 6.68
  }
]
